Data origin: ChEMBL document CHEMBL3792374

system: Liver; assay: Induction of hydrogen sulfide release in rat liver homogenate at 100 uM after 30 mins by microplate reader method (reference value: 1.03 to 1.21%); format: functional, tissue-based
Below, each entry is listed with its recorded Activity.
Express it in %; write the number only.

Consider the worked cases shown below.
* CCCCC(OC(=O)CN1CCN(CCCCCCOc2ccc(-c3cc(=S)ss3)cc2)CC1)c1ccccc1C(=O)Oc1ccc(/C=C/C(=O)OCCCCCCO[N+](=O)[O-])cc1OC (racemic) | 2.83
* CCCCC(OC(=O)CN1CCN(CCCCCCOc2ccc(-c3cc(=S)ss3)cc2)CC1)c1ccccc1C(=O)Oc1ccc(/C=C/C(=O)OCCCCO[N+](=O)[O-])cc1OC (racemic) | 1.05

Next up:
Provide Activity, system Liver, entry CCCCC(OC(=O)CN1CCN(CCCOc2ccc(-c3cc(=S)ss3)cc2)CC1)c1ccccc1C(=O)Oc1ccc(/C=C/C(=O)OCCCCO[N+](=O)[O-])cc1OC (racemic)
0.83
